Hey, just so you know, these numbers are from the supplement of paper PMC10307832.

test system: BEN; experiment: relative viability (nuclei count vs DMSO), 5 days (fraction); higher = more cells survive; conditions: first compound 0.3162 µM
Measured relative viability accompanies every entry in the list below.
Number only, no unit.

// worked examples, relative viability included
O=c1cc(N2CCOCC2)oc2c(-c3cccc4c3sc3ccccc34)cccc12 + COc1cc2c(Oc3ccc(NC(=O)C4(C(=O)Nc5ccc(F)cc5)CC4)cc3F)ccnc2cc1OCCCN1CCOCC1 [Foretinib] (partner 0.25 µM)	0.701
CCN(CC)CCCCNc1ncc2cc(-c3cc(OC)cc(OC)c3)c(NC(=O)NC(C)(C)C)nc2n1 + N=C(N)NC(=N)NCCc1ccccc1 [Phenformin] (partner 250 µM)	0.464
CCN(CC)CCCCNc1ncc2cc(-c3cc(OC)cc(OC)c3)c(NC(=O)NC(C)(C)C)nc2n1 + Nc1ncn([C@H]2C[C@H](O)[C@@H](CO)O2)c(=O)n1 [Decitabine] (partner 2 µM)	0.797

Kindly consider the entry below.
Enquiry: Tell us which relative viability value is on record for O=c1cc(N2CCOCC2)oc2c(-c3cccc4c3sc3ccccc34)cccc12 + CC(=O)c1c(C)c2cnc(Nc3ccc(N4CCNCC4)cn3)nc2n(C2CCCC2)c1=O [Palbociclib] (partner 0.5 µM)
Return: 0.514
